Listed here: items and their measured Kd.
target: TSLP (Homo sapiens); experiment: Human TSLP Surface Plasmon Resonance (SPR) binding assay; settings: biotinylated human TSLP immobilized on streptavidin chip; 20° C.; steady-state or kinetic 1:1 fit; read-out: hTSLP SPR Kd
Sequence (Q969D9 29-159): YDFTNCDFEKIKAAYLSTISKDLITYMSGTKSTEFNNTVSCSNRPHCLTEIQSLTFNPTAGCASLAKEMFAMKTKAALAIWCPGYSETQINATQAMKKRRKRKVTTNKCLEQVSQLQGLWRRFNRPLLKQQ
metric-name: Kd (nM)

CC(=O)N[C@H]1CSCCC(=O)N2CN3CN(C2)C(=O)CCSC[C@H](NC(=O)[C@H](CC(=O)O)NC(=O)[C@H](CCC(=O)O)NC(=O)[C@H](CC(C)C)NC(=O)[C@H](Cc2c[nH]c4ccccc24)NC(=O)[C@H](CCC(N)=O)NC1=O)C(=O)N[C@@H](Cc1c[nH]c2ccccc12)C(=O)N[C@@H](C)C(=O)NCC(=O)N[C@@H](Cc1ccccc1)C(=O)N[C@H](C(N)=O)CSCCC3=O [Example 149, Ac-(SEQ ID NO: 108)] ... 1100
CC(=O)N[C@H]1CSCCC(=O)N2CN3CN(C2)C(=O)CCSC[C@H](NC(=O)[C@H](CC(=O)O)NC(=O)[C@H](CCC(=O)O)NC(=O)[C@H](CC(C)C)NC(=O)[C@H](Cc2c[nH]c4ccccc24)NC(=O)[C@H](CCC(N)=O)NC1=O)C(=O)N[C@@H](Cc1c[nH]c2ccccc12)C(=O)N[C@@H](CN)C(=O)NCC(=O)N[C@@H](Cc1ccccc1)C(=O)N[C@H](C(N)=O)CSCCC3=O [Example 155, Ac-(SEQ ID NO: 114)] ... 3200
CC(=O)N[C@H]1CSCCC(=O)N2CN3CN(C2)C(=O)CCSC[C@H](NC(=O)[C@H](CC(=O)O)NC(=O)[C@H](CCC(=O)O)NC(=O)[C@H](CC(C)C)NC(=O)[C@H](Cc2c[nH]c4ccccc24)NC(=O)[C@H](CCC(N)=O)NC1=O)C(=O)N[C@@H](Cc1c[nH]c2ccccc12)C(=O)N[C@@H](CCCNC(=N)N)C(=O)NCC(=O)N[C@@H](Cc1cc(F)c(Cl)c(F)c1)C(=O)N[C@H](C(N)=O)CSCCC3=O [Example 58, Ac-(SEQ ID NO: 46)] ... 52
CC[C@H](C)[C@@H]1NC(=O)[C@H]([C@@H](C)O)NC(=O)[C@@H](NC(=O)[C@H](C)N)CSCCC(=O)N2CN3CN(C2)C(=O)CCSC[C@H](NC(=O)[C@H](CC(=O)O)NC(=O)[C@H](CCC(=O)O)NC(=O)[C@H](CC(C)C)NC1=O)C(=O)N[C@@H](Cc1c[nH]c2ccccc12)C(=O)N[C@@H](CCSC)C(=O)NCC(=O)N[C@@H](Cc1ccccc1)C(=O)N[C@H](C(=O)N[C@@H](C)C(N)=O)CSCCC3=O [Example 150, A-(SEQ ID NO: 109)-A] ... 1500
CC(=O)N[C@H]1CSCCC(=O)N2CN3CN(C2)C(=O)CCSC[C@H](NC(=O)[C@H](CC(=O)O)NC(=O)[C@H](CCC(=O)O)NC(=O)[C@H](CC(C)C)NC(=O)[C@H](Cc2c[nH]c4ccccc24)NC(=O)[C@H](CCC(N)=O)NC1=O)C(=O)N[C@@H](Cc1c[nH]c2ccccc12)C(=O)N[C@@H](CCCNC(=N)N)C(=O)NCC(=O)N[C@@H](Cc1ccncc1)C(=O)N[C@H](C(N)=O)CSCCC3=O [Example 157, Ac-(SEQ ID NO: 115)] ... 3900
CC(=O)N[C@H]1CSCCC(=O)N2CN3CN(C2)C(=O)CCSC[C@H](NC(=O)[C@H](CC(=O)O)NC(=O)[C@H](Cc2ccc(O)cc2)NC(=O)[C@H](CCC(=O)O)NC(=O)[C@H](Cc2c[nH]c4ccccc24)NC(=O)[C@H](Cc2c[nH]cn2)NC(=O)[C@H](Cc2c[nH]c4ccccc24)NC(=O)[C@H](CC(=O)O)NC1=O)C(=O)N[C@@H](Cc1c[nH]c2ccccc12)C(=O)N[C@@H](CC(C)C)C(=O)N[C@@H](CO)C(=O)N[C@H](C(N)=O)CSCCC3=O [Example 218, Ac-(SEQ ID NO: 144)] ... 2000
